The origin of these recorded values is ChEMBL document CHEMBL5316358.

Overview of recorded Ki for various molecules
# Test System: Oxysterol-binding protein 2 (Homo sapiens)
# Sequence (Q969R2 whole entry): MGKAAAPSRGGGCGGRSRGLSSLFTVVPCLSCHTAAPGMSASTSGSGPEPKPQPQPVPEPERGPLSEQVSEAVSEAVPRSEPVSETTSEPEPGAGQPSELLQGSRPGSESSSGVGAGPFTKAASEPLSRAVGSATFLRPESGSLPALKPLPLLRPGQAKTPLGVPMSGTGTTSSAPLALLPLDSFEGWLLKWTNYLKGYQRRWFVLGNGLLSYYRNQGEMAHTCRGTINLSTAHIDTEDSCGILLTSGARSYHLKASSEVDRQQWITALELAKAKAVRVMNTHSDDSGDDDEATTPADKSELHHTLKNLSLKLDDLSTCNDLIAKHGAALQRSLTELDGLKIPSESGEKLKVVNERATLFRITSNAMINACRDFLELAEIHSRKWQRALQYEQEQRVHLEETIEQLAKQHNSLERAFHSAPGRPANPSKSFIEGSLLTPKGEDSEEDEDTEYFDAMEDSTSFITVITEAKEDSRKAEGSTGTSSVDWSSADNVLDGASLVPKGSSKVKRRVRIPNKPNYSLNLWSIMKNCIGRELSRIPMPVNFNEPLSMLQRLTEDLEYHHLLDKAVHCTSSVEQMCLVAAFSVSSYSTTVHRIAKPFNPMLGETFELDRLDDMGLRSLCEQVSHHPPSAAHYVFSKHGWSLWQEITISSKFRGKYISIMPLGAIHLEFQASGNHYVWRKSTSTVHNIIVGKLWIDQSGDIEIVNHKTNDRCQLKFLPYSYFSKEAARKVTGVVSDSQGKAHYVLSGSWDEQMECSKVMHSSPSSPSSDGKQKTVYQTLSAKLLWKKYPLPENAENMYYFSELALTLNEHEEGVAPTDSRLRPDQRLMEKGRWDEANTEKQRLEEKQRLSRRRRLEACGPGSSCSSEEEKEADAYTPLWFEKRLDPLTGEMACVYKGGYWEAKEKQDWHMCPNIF
# Method: Displacement of [3H]-25-OHC from human ORP4 overexpressed in HEK293T cell lysate assessed as inhibition constant by competitive binding assay
# Type: subcellular

Here's what some known entries look like.
CC(C)CC[C@@H](O)[C@](C)(O)[C@H]1CC[C@H]2[C@@H]3CC=C4C[C@@H](O)CC[C@]4(C)[C@H]3CC[C@]12C :: > 15 µM
C[C@H](CCCC(C)(C)O)[C@H]1CC[C@H]2[C@@H]3[C@H](O)C=C4C[C@@H](O)CC[C@]4(C)[C@H]3CC[C@]12C :: 0.092 µM
CC(C)CC[C@H](O)[C@@H](C)[C@H]1CC[C@H]2[C@@H]3CC=C4C[C@@H](O)CC[C@]4(C)[C@H]3CC[C@]12C :: > 3 µM
CC(C)[C@@H](O)CC[C@@H](C)[C@H]1CC[C@H]2[C@@H]3CC=C4C[C@@H](O)CC[C@]4(C)[C@H]3CC[C@]12C :: 0.4 µM
CC(C)(O)[C@H]1O[C@H]2CC[C@@]3(C)[C@@](O)(CC[C@H]4Cc5c([nH]c6ccccc56)[C@@]43C)C2=CC1=O [PAXILLINE] :: > 30 µM
CC(C)CC[C@](C)(O)[C@H]1CC[C@H]2[C@@H]3CC=C4C[C@@H](O)CC[C@]4(C)[C@H]3CC[C@@]21C :: > 2 µM

Here is the next item to consider.
[ask] Value wanted: Ki (Oxysterol-binding protein 2 (Homo sapiens)) of entry CC(C)CCN[C@@H](C)[C@H]1CC[C@H]2[C@@H]3CC=C4C[C@@H](O)CC[C@]4(C)[C@H]3CC[C@]12C
[reply] > 100 µM
